Every entry's value here was drawn from patent US20250270301A1.

# system_tested: T1, full length recombinant human 2N4R tau (human, UniProt P10636 1-758)
# T1 construct: bought from rPeptide; pHrodo Red maleimide-labelled where it stands in uptake assays; also called tau1-441; full length tau
# protocol_description: SPR MCK, IgG on Protein A, tau in flow at 100 µL/min
parameter: kon (M⁻¹ s⁻¹)
Return type: number; implicit unit M⁻¹ s⁻¹.

>  <binder>
#44_VH4VK4_H02/pVL (antibody, V domains shown, also called Clone VH4_H02; #44_VH4_H02) VH: QVQLQESGPGLVKPSETLSLTCTVSGIDLSSYAMAWVRQAPGKGLEWIGCIDRRGGTFYASWVKGRFTISKDTSKTTVDLQMTSLTAEDTATYFCARDRGDFDVWGQGTLVTVSS VL: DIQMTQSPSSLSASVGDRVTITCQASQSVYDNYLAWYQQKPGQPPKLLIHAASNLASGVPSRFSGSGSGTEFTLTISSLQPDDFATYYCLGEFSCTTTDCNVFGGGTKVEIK

>  <endpoint_unit>
M⁻¹ s⁻¹

>  <kon>
2.43e+06

$$$$
>  <binder>
#44_VH4VK4_H06/pVL (antibody, V domains shown, also called Clone VH4_H06; #44_VH4_H06) VH: QVQLQESGPGLVKPSETLSLTCTVSGIDLSSYAMAWVRQAPGKGLEWIGVIDAAGHTFYASWVKGRFTISKDTSKTTVDLQMTSLTAEDTATYFCARDSGTFDPWGQGTLVTVSS VL: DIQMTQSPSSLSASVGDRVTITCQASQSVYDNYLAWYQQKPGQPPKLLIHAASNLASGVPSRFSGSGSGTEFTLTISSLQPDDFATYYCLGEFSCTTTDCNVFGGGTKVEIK

>  <endpoint_unit>
M⁻¹ s⁻¹

>  <kon>
3.43e+06

$$$$
>  <binder>
#44_VH4VK4 humanised hIgG1 (antibody, V domains shown, also called VH4Vκ4; pVH/pVL) VH: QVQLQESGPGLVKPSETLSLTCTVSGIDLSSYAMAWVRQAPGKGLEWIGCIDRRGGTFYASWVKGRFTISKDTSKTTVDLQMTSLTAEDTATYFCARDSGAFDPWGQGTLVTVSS VL: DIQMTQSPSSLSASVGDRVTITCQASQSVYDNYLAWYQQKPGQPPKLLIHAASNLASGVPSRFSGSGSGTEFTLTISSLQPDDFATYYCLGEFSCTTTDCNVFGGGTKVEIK

>  <endpoint_unit>
M⁻¹ s⁻¹

>  <kon>
1.89e+06

$$$$

Let us move to another entry and its kon.
Prompt: Which kon value belongs to #44_VH4VK4_H04/pVL (antibody, V domains shown, also called VH04/pVL; Clone VH4_H04) VH: QVQLQESGPGLVKPSETLSLTCTVSGIDLSSYAMAWVRQAPGKGLEWIGCIDRRGGTFYASWVKGRFTISKDTSKTTVDLQMTSLTAEDTATYFCARDAGSFHPWGQGTLVTVSS VL: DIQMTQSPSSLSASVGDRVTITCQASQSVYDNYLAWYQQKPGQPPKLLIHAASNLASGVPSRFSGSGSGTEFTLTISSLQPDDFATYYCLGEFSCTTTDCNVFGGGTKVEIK ?
Completion: 2.51e+06
